- Tested on: CYP1A1 (AhR mediated induction)
- ASSAY_SUMMARY: TV-cell assay: luciferase gene reporter assay for AhR mediated induction of CYP1A1 in TV101L (HepG2) cells
- Type: cell-based, human
- RECORDED_CONDITIONS: human; 100 μM, TV101L cells, 12-24 hours; read-out: Fold induction of luciferase expression
REPORTED_METRIC: fold induction at 100 µM
Please give the numeric answer without any surrounding text.

INPUT: Enter reported fold induction at 100 µM observed with CYP1A1 (AhR mediated induction) for COc1cccc2c1c(O)c(C(=O)N(C)c1ccc(C(F)(F)F)cc1)c(=O)n2C [ABR-215050, reference compound]
OUTPUT: 11.8

---

- ASSAY_SUMMARY: In vivo pharmacokinetics in rat: plasma levels of parents and amide-N demethyl metabolite after 1:1 mixture
- RECORDED_CONDITIONS: plasma, oral; rat No 1, 1 h, peroral 2.5 mg/kg of each compound (1:1 mixture); read-out: Plasma level
REPORTED_METRIC: concentration at 1 h (µM)
Record the value in µM, omitting the unit from your answer.

INPUT: Would you mind telling me what concentration at 1 h value was observed for COc1cccc2c1c(O)c(C(=O)N(C)c1ccc(C(F)(F)F)cc1)c(=O)n2C [ABR-215050, reference compound] ?
OUTPUT: 13.8

---

- Test system: AhR (Aryl hydrocarbon Receptor) mediated induction of CYP1A1
- ASSAY_SUMMARY: TV-cell assay: luciferase gene reporter assay for AhR mediated induction of CYP1A1 in TV101L (HepG2) cells
- Format: cell-based, human
- RECORDED_CONDITIONS: TV-cell assay
REPORTED_METRIC: CYP1A induction (in words)

[
  {
    "MOL": "COc1cccc2[nH]c(=O)c(C(=O)N(C)c3ccc(C(F)(F)F)cc3)c(O)c12",
    "EXPERIMENTAL_VALUE": "not to induce CYP1A"
  },
  {
    "MOL": "CN(C(=O)c1c(O)c2c(O)cccc2n(C)c1=O)c1ccc(C(F)(F)F)cc1",
    "EXPERIMENTAL_VALUE": "not to induce CYP1A"
  }
]

---

- ASSAY_SUMMARY: In vivo pharmacokinetics in rat: plasma levels of parents and amide-N demethyl metabolite after 1:1 mixture
- RECORDED_CONDITIONS: plasma, oral; rat No 3, 3 h, peroral 2.5 mg/kg of each compound (1:1 mixture); read-out: Plasma level
- Excerpt: Therefore, the pharmacokinetic characteristics of the amide-N methyl deuterated ABR-215050 (herein below referred to as ABR-215050-dx), wherein the amide-N methyl moiety was tri-deuterated, compared to the non-deuterated parent compound were studied in rat. […] In other words: relative to ABR-215050, the in vivo formation of ABR-215691 was reduced to only 25% when ABR-215050-dx was used. […]
REPORTED_METRIC: concentration at 3 h (µM)
Answer with a number only, understood to be in µM.

INPUT: What value of concentration at 3 h has been recorded for this entry: COc1cccc2c1c(O)c(C(=O)N(C)c1ccc(C(F)(F)F)cc1)c(=O)n2C [ABR-215050, reference compound]
OUTPUT: 7.38

---

- System: CYP1A1 (AhR mediated induction)
- ASSAY_SUMMARY: TV-cell assay: luciferase gene reporter assay for AhR mediated induction of CYP1A1 in TV101L (HepG2) cells
- Format: cell-based, human
- RECORDED_CONDITIONS: human; 1 μM, TV101L cells, 12-24 hours; read-out: Fold induction of luciferase expression
REPORTED_METRIC: fold induction at 1 µM

INPUT: Requested read-out: fold induction at 1 µM. Entry: COc1cccc2c1c(O)c(C(=O)N(C)c1ccc(C(F)(F)F)cc1)c(=O)n2C [ABR-215050, reference compound]
OUTPUT: 5.2

INPUT: Fill in: fold induction at 1 µM of COc1cccc2c1c(O)c(C(=O)Nc1ccc(C(F)(F)F)cc1)c(=O)n2C [ABR-215691] is ___
OUTPUT: 21.3

---

- Tested on: CYP1A1 (AhR mediated induction)
- ASSAY_SUMMARY: TV-cell assay: luciferase gene reporter assay for AhR mediated induction of CYP1A1 in TV101L (HepG2) cells
- Type: cell-based, human
- RECORDED_CONDITIONS: human; 0.1 μM, TV101L cells; read-out: Fold induction of luciferase expression
REPORTED_METRIC: fold induction at 0.1 µM

INPUT: Report fold induction at 0.1 µM for "COc1cccc2c1c(O)c(C(=O)Nc1ccc(C(F)(F)F)cc1)c(=O)n2C" please.
OUTPUT: 14.9

---

- Tested on: CYP1A1 (AhR mediated induction)
- ASSAY_SUMMARY: TV-cell assay: luciferase gene reporter assay for AhR mediated induction of CYP1A1 in TV101L (HepG2) cells
- Assay type: cell-based, human
- RECORDED_CONDITIONS: human; 10 μM, TV101L cells, 12-24 hours; read-out: Fold induction of luciferase expression
REPORTED_METRIC: fold induction at 10 µM

INPUT: GET /values?readout=fold induction at 10 µM&item= COc1cccc2c1c(O)c(C(=O)N(C)c1ccc(C(F)(F)F)cc1)c(=O)n2C [ABR-215050, reference compound]
OUTPUT: 7.3
